# Target entity: adenosine A2a receptor (Human) (Homo sapiens)
# Construct: host or cells: HEK293
# Sequence (P29274 whole entry): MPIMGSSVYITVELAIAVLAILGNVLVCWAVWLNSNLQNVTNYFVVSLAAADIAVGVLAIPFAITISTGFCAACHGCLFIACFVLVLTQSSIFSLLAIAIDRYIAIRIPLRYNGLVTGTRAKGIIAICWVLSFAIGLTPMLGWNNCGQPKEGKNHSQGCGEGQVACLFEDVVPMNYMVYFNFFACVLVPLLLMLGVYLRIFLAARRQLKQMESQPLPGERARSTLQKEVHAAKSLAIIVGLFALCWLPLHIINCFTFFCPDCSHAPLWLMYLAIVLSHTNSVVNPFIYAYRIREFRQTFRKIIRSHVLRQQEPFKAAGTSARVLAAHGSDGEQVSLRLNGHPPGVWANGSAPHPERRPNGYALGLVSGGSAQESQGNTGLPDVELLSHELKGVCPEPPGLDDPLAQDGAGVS
# Experimental details: c-AMP generating action in cell expressing adenosine A2a receptor
# Assay type: cell-based
# Assay setup: HEK293 cell expressing human A2a; 100% = c-AMP caused by 1 μM CGS-21680; read-out: A2a Agonistic Action (EC50)
Value kind: EC50 (nM)
Expressed in nM, but write only the number.

molecule=CC(=O)Nc1ccc(-c2nc(SCc3cccc(CCCCC(=O)N4CCN(C)CC4)n3)nc(N)c2C#N)cc1 target_entity="adenosine A2a receptor (Human) (Homo sapiens)" recorded_value=5.3
molecule="CC(=O)Nc1ccc(-c2nc(SCc3cccc(CCC(=O)N4CCN(CCN(C(C)C)C(C)C)CC4)n3)nc(N)c2C#N)cc1.Cl [Example 76, hydrochloride]" target_entity="adenosine A2a receptor (Human) (Homo sapiens)" recorded_value=7.6
molecule=C=CC(=O)Nc1ccc(-c2nc(SCc3cccc(C)n3)nc(N)c2C#N)cc1 target_entity="adenosine A2a receptor (Human) (Homo sapiens)" recorded_value=19.1
molecule=CC(=O)Nc1ccc(-c2nc(SCc3ccccn3)nc(N)c2C#N)cc1 target_entity="adenosine A2a receptor (Human) (Homo sapiens)" recorded_value=39.6
molecule=CCC(=O)Nc1ccc(-c2nc(SCc3cccc(CCC(=O)N4CCN(C)CC4)n3)nc(N)c2C#N)cc1 target_entity="adenosine A2a receptor (Human) (Homo sapiens)" recorded_value=3.4
molecule="CC(=O)Nc1ccc(-c2nc(SCc3cccc(CCC(=O)N4CCN(CCN5CCOCC5)CC4)n3)nc(N)c2C#N)cc1.Cl [Example 78, hydrochloride]" target_entity="adenosine A2a receptor (Human) (Homo sapiens)" recorded_value=6
molecule=CC(=O)Nc1ccc(-c2nc(SCc3cccc(C)n3)nc(N)c2C#N)cc1 target_entity="adenosine A2a receptor (Human) (Homo sapiens)" recorded_value=11.9
molecule="CC(=O)Nc1ccc(-c2nc(SCc3cccc(CCC(=O)NCCN(C)C)n3)nc(N)c2C#N)cc1.Cl [Example 61, hydrochloride]" target_entity="adenosine A2a receptor (Human) (Homo sapiens)" recorded_value=3.4

Ask | // query EC50 value for entry CC(=O)Nc1ccc(-c2nc(SCc3cccc(CCC(=O)OC(C)(C)C)n3)nc(N)c2C#N)cc1
Reply | 10

Ask | Requested field: EC50. Item: CC(=O)Nc1ccc(-c2nc(SCc3cccc(CCC(=O)N(C)CCN(C)C)n3)nc(N)c2C#N)cc1.Cl [Example 62, hydrochloride]
Reply | 5.1

Ask | Query (molecule): COC(=O)Nc1ccc(-c2nc(SCc3cccc(C)n3)nc(N)c2C#N)cc1 ; field requested: EC50
Reply | 13.5

Ask | Give its EC50 value. Item: CC(=O)Nc1ccc(-c2nc(SCc3cccc(C(=O)N4CCN(C(=O)OC(C)(C)C)CC4)n3)nc(N)c2C#N)cc1
Reply | 8.2

Ask | For the molecule CC(=O)Nc1ccc(-c2nc(SCc3cccc(C=CC(=O)N4CCN(C)CC4)n3)nc(N)c2C#N)cc1 , what EC50 is on record?
Reply | 29.1

Ask | Fill in: EC50 of Cc1cccc(CSc2nc(N)c(C#N)c(-c3ccc(N)cc3)n2)n1 is ___
Reply | 34.8

Ask | For the molecule shown here, CCN(CC)CCN1CCN(C(=O)CCc2cccc(CSc3nc(N)c(C#N)c(-c4ccc(NC(C)=O)cc4)n3)n2)CC1.Cl [Example 75, hydrochloride] , give the reported EC50.
Reply | 3
